Assay Target: CIB1 and αIIb interaction (CIB1-GST : F-αIIb peptide) (Homo sapiens, UniProt Q99828)
Construct: made in house; host or cells: BL-21 plus RIL cells (E. coli)
Assay Notes: FP assay, 1536-well qHTS format (primary and confirmatory screen)
Type: binding
Run Conditions: qHTS primary screen hits, Table S2; negative sign = inhibitory curve; several classes where COUNT > 1
Property Measured: Curve Class
The reply should be a number, written without any unit.

What the record says about CCc1ccc(S(=O)(=O)Nc2cnccc2C(=O)Nc2nc(-c3ccccc3)cs2)cc1.O=C(O)C(F)(F)F [NCGC00344909-01] : Curve Class is -2.2

What the record says about COc1cc(/C=C2/N=C(c3ccccc3)OC2=O)c(F)cc1OCc1ccccc1 [NCGC00168015-01] : Curve Class is -2.1

What the record says about O=C(Cc1ccccc1)NC(c1ccco1)c1cc(Cl)c2cccnc2c1O.O=C(O)C(F)(F)F (stereo not shown) [NCGC00188377-01] : Curve Class is -2.2

What the record says about CC(=O)NCc1ccc(-c2csc(Nc3cc(C)cc(C)c3)n2)o1.O=C(O)C(F)(F)F [NCGC00314997-03] : Curve Class is -2.4

What the record says about Nc1cccc2c1C(=O)N(C1CCC(=O)NC1=O)C2=O (stereo not shown) [NCGC00346551-01] : Curve Class is -2.2

What the record says about Oc1cccc(C2=C3C=CC(=N3)C(c3cccc(O)c3)=C3C=CC(=N3)C(c3cccc(O)c3)=C3CCC(=N3)C(c3cccc(O)c3)=C3C=CC2=N3)c1 [NCGC00183015-01] : Curve Class is -2.4

What the record says about O=C1CCC(N2C(=O)c3ccccc3C2=O)C(=O)N1 (stereo not shown) [NCGC00015989-17] : Curve Class is -2.4

What the record says about Cl.NC(CO)(CO)CCc1ccc(Sc2cccc(OCc3ccccc3)c2)cc1Cl [NCGC00250388-02] : Curve Class is -2.2

New cases:
What the record says about O=C(O)C(F)(F)F.O=S(=O)(Nc1nccs1)c1ccc(Nc2nc(-c3ccccc3)cs2)cc1 [NCGC00262380-01] : Curve Class is -2.2

What the record says about Cc1c2c(=O)n(-c3ccccc3)[nH]c2cc(=O)n1CCc1ccccc1.O=C(O)C(F)(F)F [NCGC00248471-01] : Curve Class is -2.4

What the record says about COC1=C(OC)C(=O)C(CCCCCCCCCCO)=C(C)C1=O [NCGC00160514-02] : Curve Class is -2.4

What the record says about CCN(CC)CCCN(c1ccccc1)C1Cc2ccccc2C1.Cl [NCGC00167576-02] : Curve Class is -3

What the record says about CC(=O)Nc1sc2c(c1-c1nc3ccccc3s1)CCN(C1COC1)C2.O=C(O)C(F)(F)F [NCGC00241066-01] : Curve Class is -1.2

What the record says about Cc1ccn2c(Nc3ccc4c(c3)OCO4)c(-c3ccccn3)nc2c1.O=C(O)C(F)(F)F [NCGC00241360-01] : Curve Class is -2.4

What the record says about O=C(Nc1nc(-c2ccccc2)cs1)c1ccncc1NS(=O)(=O)c1ccccc1.O=C(O)C(F)(F)F [NCGC00344903-01] : Curve Class is -2.2

What the record says about O=C(O)C(F)(F)F.O=C1CC(c2ccc(F)cc2Cl)c2sc(N3CCOCC3)nc2N1 (stereo not shown) [NCGC00488260-02] : Curve Class is -2.4

---

Reported CONFIRMATORY SCREEN Efficacy (%) is given for each of the following compounds.
Assay Target: CIB1 and αIIb interaction (CIB1-GST : F-αIIb peptide) (Homo sapiens, UniProt Q99828)
Construct: made in house; host or cells: BL-21 plus RIL cells (E. coli)
Sequence (Q99828 1-191): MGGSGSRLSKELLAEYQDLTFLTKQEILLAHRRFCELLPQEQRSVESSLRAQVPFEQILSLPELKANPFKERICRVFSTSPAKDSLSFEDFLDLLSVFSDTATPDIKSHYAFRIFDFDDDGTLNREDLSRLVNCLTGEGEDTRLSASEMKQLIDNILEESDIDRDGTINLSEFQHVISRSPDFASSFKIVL
Assay Notes: FP assay, 1536-well qHTS format (primary and confirmatory screen)
Assay type: binding
Run Conditions: confirmatory screen
// note: answer is a bare numeric in %

Consider the following illustrative entries.
What the record says about `Cc1nc(C(=O)NCC(=O)O)c(O)c2ccc(Oc3ccccc3)cc12` : CONFIRMATORY SCREEN Efficacy (%) is -26

What the record says about CC(=O)NC(c1cccs1)c1cc(Br)c2cccnc2c1O (centres unmarked) : CONFIRMATORY SCREEN Efficacy (%) is -36

What the record says about `O=C(O)C(F)(F)F.O=C(O)c1csc(-n2nc(-c3ccc(F)c(F)c3)c3cccc(O)c32)n1` : CONFIRMATORY SCREEN Efficacy (%) is -21

New cases:
What the record says about `CC(C)(C)OC(=O)CC(=O)NNC(=O)c1nc2ccccc2[nH]1` : CONFIRMATORY SCREEN Efficacy (%) is -10

What the record says about `O=C(O)Cc1ccc(CCNS(=O)(=O)c2ccc(Cl)cc2)cc1` : CONFIRMATORY SCREEN Efficacy (%) is 14

What the record says about `CN1CCC(N(Cc2cccs2)c2ccccc2)CC1` : CONFIRMATORY SCREEN Efficacy (%) is 0

What the record says about `CC1(C)N=C(Nc2nc3ccccc3o2)NC2=C1C(=O)CCC2.O=C(O)C(F)(F)F` : CONFIRMATORY SCREEN Efficacy (%) is -26

What the record says about `CS(=O)(=O)c1ccc(C(=O)OCC(=O)N2CCC(Cc3ccccc3)CC2)cc1[N+](=O)[O-]` : CONFIRMATORY SCREEN Efficacy (%) is -18

---

Assay Target: GST-CIB1 : F-scrambled peptide (Homo sapiens, UniProt Q99828)
Construct: made in house; host or cells: BL-21 plus RIL cells (E. coli)
Assay Notes: FP scrambled-peptide counter screen, 1536-well format
Format: binding
Run Conditions: scrambled-peptide counterscreen, qHTS curve class
Reported COUNTERSCREEN Curve Class is given for each of the following molecules.
The reply should be a number, written without any unit.

What the record says about `CCOC(=O)c1ccc(O)c2ncc(-c3ccc(C(=N)N)cc3)cc12.O=C(O)C(F)(F)F` : COUNTERSCREEN Curve Class is 4

What the record says about `Br.CCCCCCCCCCCCCCCC[N+](C)(C)C.[Br-]` : COUNTERSCREEN Curve Class is 4

What the record says about `Cc1cc(F)ccc1S(=O)(=O)Nc1cnccc1C(=O)Nc1nc(-c2ccccc2)cs1` : COUNTERSCREEN Curve Class is 4

What the record says about Brc1c(Br)c(Br)c2[nH]nnc2c1Br [NCGC00092352-04, 4,5,6,7-tetrabromobenzotriazole, reference compound] : COUNTERSCREEN Curve Class is 3

What the record says about `O=Cc1c(-c2ccccc2)no[n+]1[O-]` : COUNTERSCREEN Curve Class is 4

What the record says about `Cc1cc(NS(=O)(=O)c2ccc(NCCc3ccc(Cl)c(Cl)c3)cc2)no1.O=C(O)C(F)(F)F` : COUNTERSCREEN Curve Class is 3

What the record says about `C=CCNc1oc(-c2cccc3ccccc23)nc1C#N.O=C(O)C(F)(F)F` : COUNTERSCREEN Curve Class is 4

What the record says about `Cc1ccc(S(=O)(=O)Nc2cnccc2C(=O)Nc2nc(-c3ccc(Cl)cc3)cs2)cc1.O=C(O)C(F)(F)F` : COUNTERSCREEN Curve Class is 3

Consider now this further molecule.
What the record says about `Cc1c(C)n(Cc2ccc(-c3ccccc3C(=O)O)cc2)c2ccc(C(=O)N[C@@H](C)c3ccc([N+](=O)[O-])cc3)cc12` : COUNTERSCREEN Curve Class is 3

---

Assay Target: CIB1 and αIIb interaction (CIB1-GST : F-αIIb peptide) (Homo sapiens, UniProt Q99828)
Construct: made in house; host or cells: BL-21 plus RIL cells (E. coli)
Sequence (Q99828 1-191): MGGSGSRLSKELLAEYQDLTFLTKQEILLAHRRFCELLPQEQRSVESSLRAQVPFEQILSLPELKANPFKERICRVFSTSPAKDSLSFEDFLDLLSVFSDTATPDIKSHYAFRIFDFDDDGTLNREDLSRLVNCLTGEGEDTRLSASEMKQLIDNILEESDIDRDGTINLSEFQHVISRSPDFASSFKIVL
Assay Notes: FP assay, 1536-well qHTS format (primary and confirmatory screen)
Format: binding
Run Conditions: qHTS primary screen hits, Table S2; negative sign = inhibitory curve; several classes where COUNT > 1
Property Measured: Curve Class
The reply should be a number, written without any unit.

Consider the following illustrative entries.
What the record says about COCc1ccc(-c2nn(Cc3ccccc3)c3ccccc23)o1 [NCGC00479273-01] : Curve Class is -2.4

What the record says about Cc1c(Cl)cccc1-n1c(CCC(=O)O)ccc1-c1cccs1 [NCGC00100415-03] : Curve Class is -2.2

What the record says about O=C(Nc1ccccc1)c1ccccc1NC(=O)C1CCCCC1 [NCGC00189487-01] : Curve Class is -2.4

New cases:
What the record says about CN1CCC(N(Cc2cccs2)c2ccccc2)CC1 [NCGC00183847-01] : Curve Class is -2.4

What the record says about O=C(NC1=CC(=O)[C@H]2O[C@H]2C1=O)c1ccccc1O [NCGC00168093-01] : Curve Class is -2.4

What the record says about S=C(SSC(=S)N1CCCCC1)N1CCCCC1 [NCGC00181776-02, dipentamethylenethiuram disulfide] : Curve Class is -1.2

What the record says about CN(C)c1ccc(C(=C2C=CC(=[N+](C)C)C=C2)c2ccccc2)cc1.CN(C)c1ccc(C(=C2C=CC(=[N+](C)C)C=C2)c2ccccc2)cc1.O=C(O)C(=O)O.O=C([O-])C(=O)O.O=C([O-])C(=O)O [NCGC00013058-02] : Curve Class is -3

What the record says about O=C(Nc1ccc2ccccc2c1)Nc1nnc(-c2ccccn2)s1.O=C(O)C(F)(F)F [NCGC00188528-01] : Curve Class is -2.4

What the record says about O=C(O)C(F)(F)F.O=C1CC(c2ccc(F)cc2F)c2sc(N3CCOCC3)nc2N1 (centres unmarked) [NCGC00488253-02] : Curve Class is -2.4

What the record says about Cn1cnc2c1c(=O)[nH]c(=O)n2C [NCGC00016023-18] : Curve Class is -3

What the record says about O=C(Nc1ccc(Cl)c(Cl)c1)Nc1nnc(N2CCNCC2)s1.O=C(O)C(F)(F)F [NCGC00238616-01] : Curve Class is -2.4

What the record says about Cc1cc(C)nc(NC(=S)N2CCN(c3ccc4nonc4c3)CC2)c1.O=C(O)C(F)(F)F [NCGC00244156-01] : Curve Class is -2.4

What the record says about Cc1ccc(S(=O)(=O)Nc2cnccc2C(=O)Nc2nc(-c3ccc(C)c(C)c3)cs2)cc1.O=C(O)C(F)(F)F [NCGC00318954-01] : Curve Class is -3

What the record says about CC(C)c1ccc(NC(=S)N/N=C2\C(=O)Nc3ccccc32)cc1.O=C(O)C(F)(F)F [NCGC00242646-01] : Curve Class is -1.4

What the record says about Cc1cc2c(cc1C1(c3ccc(C(=O)O)cc3)CC1)C(C)(C)CCC2(C)C [NCGC00241454-01] : Curve Class is -2.4

What the record says about O=C(O)c1ccc(S(=O)(=O)N[C@@H](Cc2ccc(O)cc2)C(=O)O)cc1 [NCGC00161808-01] : Curve Class is -2.4

What the record says about O=C(Nc1nc(-c2ccccc2)cs1)c1ccccc1NS(=O)(=O)c1ccc(F)cc1.O=C(O)C(F)(F)F [NCGC00247844-02] : Curve Class is -1.4
